protocol.text: Cytotoxicity against human HepG2(2.2.15) cells by modified-MTT assay
Type: cell-based
assay.readout: CC50

# annotated cases, reported CC50 shown
CC(=O)[C@]1(OC(=O)/C=C/c2ccc(Cl)cc2)CC[C@@]2(O)[C@]1(C)[C@H](OC(=O)/C=C(\C)C(C)C)C[C@@H]1[C@@]3(C)CC[C@H](OC(=O)/C=C/c4ccc(Cl)cc4)CC3=CC[C@]12O | > 1160 µM
COc1ccccc1/C=C/C(=O)O[C@H]1CC[C@@]2(C)C(=CC[C@]3(O)[C@@H]2C[C@@H](OC(=O)/C=C(\C)C(C)C)[C@@]2(C)[C@]3(O)CC[C@@]2(O)C(C)=O)C1 | > 2370 µM

Now for another entry.
response.value for COc1ccc(/C=C/C(=O)O[C@H]2CC[C@@]3(C)C(=CC[C@]4(O)[C@@H]3C[C@@H](OC(=O)/C=C(\C)C(C)C)[C@@]3(C)[C@]4(O)CC[C@@]3(O)C(C)=O)C2)cc1OC (field: CC50) = > 1600 µM
